Biological target: Muscarinic acetylcholine receptor M2 (Homo sapiens, UniProt P08172); note: assay procedure not described here
Sequence (P08172 whole entry): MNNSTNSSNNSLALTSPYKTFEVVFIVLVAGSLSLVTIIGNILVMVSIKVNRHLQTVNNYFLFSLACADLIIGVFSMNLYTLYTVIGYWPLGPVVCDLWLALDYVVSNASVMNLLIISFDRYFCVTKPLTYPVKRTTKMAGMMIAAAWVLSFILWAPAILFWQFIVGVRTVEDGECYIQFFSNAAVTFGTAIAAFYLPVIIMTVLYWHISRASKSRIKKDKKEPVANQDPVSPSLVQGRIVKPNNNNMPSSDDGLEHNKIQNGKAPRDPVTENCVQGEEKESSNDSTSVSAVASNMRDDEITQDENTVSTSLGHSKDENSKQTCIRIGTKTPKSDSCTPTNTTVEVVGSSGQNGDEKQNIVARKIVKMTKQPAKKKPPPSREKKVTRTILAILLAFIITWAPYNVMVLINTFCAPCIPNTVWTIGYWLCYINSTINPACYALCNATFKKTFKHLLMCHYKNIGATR
metric: AC50

compound: CN(C)CCN(Cc1ccccc1)c1ccccn1
metric: AC50
reported.measurement: 4.72 µM

compound: CC(NCCC(c1ccccc1)c1ccccc1)c1ccccc1 (stereo not drawn)
metric: AC50
reported.measurement: 6.17 µM

compound: C[C@@H]1CN(c2c(F)c(N)c3c(=O)c(C(=O)O)cn(C4CC4)c3c2F)C[C@H](C)N1
metric: AC50
reported.measurement: > 30 µM

compound: CC(=O)OCC(=O)[C@@]1(OC(C)=O)[C@@H](C)C[C@H]2[C@@H]3C[C@H](F)C4=CC(=O)C=C[C@]4(C)[C@@]3(F)[C@@H](O)C[C@@]21C [DIFLORASONE DIACETATE]
metric: AC50
reported.measurement: > 30 µM

compound: CC(C)N1CCN(c2ccc(OCC3COC(Cn4cncn4)(c4ccc(Cl)cc4Cl)O3)cc2)CC1 (stereo not drawn)
metric: AC50
reported.measurement: 10.9 µM

compound: Nc1ccn(C[C@@H](CO)OCP(=O)(O)O)c(=O)n1
metric: AC50
reported.measurement: > 30 µM

compound: O=C(O)[C@H](O)[C@@H](O)[C@H](O)[C@H](O)CO
metric: AC50
reported.measurement: > 30 µM

compound: CC(C)NC[C@H](O)COc1ccc(CCOCC2CC2)cc1
metric: AC50
reported.measurement: > 30 µM

---

Target: UniProt:P35348
Sequence (P35348 whole entry): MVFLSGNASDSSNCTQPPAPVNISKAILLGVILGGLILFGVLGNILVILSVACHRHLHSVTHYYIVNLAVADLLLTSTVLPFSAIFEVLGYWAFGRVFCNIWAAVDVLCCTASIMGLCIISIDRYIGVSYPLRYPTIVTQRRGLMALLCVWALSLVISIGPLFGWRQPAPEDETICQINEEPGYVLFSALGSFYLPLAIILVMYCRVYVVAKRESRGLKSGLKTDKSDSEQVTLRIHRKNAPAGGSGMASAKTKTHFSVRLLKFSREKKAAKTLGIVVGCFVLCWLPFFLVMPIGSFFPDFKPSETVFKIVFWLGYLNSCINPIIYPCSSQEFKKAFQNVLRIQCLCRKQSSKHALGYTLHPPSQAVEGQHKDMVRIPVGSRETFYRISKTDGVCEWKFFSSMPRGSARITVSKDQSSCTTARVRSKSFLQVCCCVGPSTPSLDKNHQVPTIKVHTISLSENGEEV
Type: functional, cell-based
metric: AC50

compound: CCNC(=O)CCC/C=C\C[C@@H]1[C@@H](/C=C/[C@@H](O)CCc2ccccc2)[C@H](O)C[C@@H]1O
measured.target: UniProt:P35348
metric: AC50
reported.measurement: > 30 µM
--
compound: COC(=O)c1ccc2c(c1)NC(=O)/C2=C(\Nc1ccc(N(C)C(=O)CN2CCN(C)CC2)cc1)c1ccccc1
measured.target: UniProt:P35348
metric: AC50
reported.measurement: > 30 µM
--
compound: NCC1(CC(=O)O)CCCCC1
measured.target: UniProt:P35348
metric: AC50
reported.measurement: > 30 µM
--
compound: CCCCCCOC(=O)NC(=N)c1ccc(NCc2nc3cc(C(=O)N(CCC(=O)OCC)c4ccccn4)ccc3n2C)cc1 [DABIGATRAN ETEXILATE]
measured.target: UniProt:P35348
metric: AC50
reported.measurement: > 30 µM

---

Reported AC50 for target or system Muscarinic acetylcholine receptor M5 (Homo sapiens), by entry. Note: assay procedure not described here.
metric: AC50

compound: CC(NC(C)(C)C)C(=O)c1cccc(Cl)c1 (stereo not drawn)
measured.target: Muscarinic acetylcholine receptor M5 (Homo sapiens); note: assay procedure not described here
Sequence (P08912 whole entry): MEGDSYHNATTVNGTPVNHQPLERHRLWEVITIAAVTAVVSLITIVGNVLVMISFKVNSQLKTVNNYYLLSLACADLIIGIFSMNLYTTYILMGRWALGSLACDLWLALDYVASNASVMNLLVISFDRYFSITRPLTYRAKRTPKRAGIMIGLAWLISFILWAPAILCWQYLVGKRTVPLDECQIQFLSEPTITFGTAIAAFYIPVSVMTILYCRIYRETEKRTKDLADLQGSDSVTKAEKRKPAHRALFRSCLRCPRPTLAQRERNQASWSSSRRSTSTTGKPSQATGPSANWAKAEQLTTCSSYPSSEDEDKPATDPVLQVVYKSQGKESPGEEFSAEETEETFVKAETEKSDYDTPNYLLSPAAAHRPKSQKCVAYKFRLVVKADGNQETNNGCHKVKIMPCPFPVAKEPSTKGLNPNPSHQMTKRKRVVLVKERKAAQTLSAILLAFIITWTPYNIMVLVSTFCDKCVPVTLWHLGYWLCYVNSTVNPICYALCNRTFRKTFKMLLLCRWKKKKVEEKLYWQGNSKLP
reported.measurement: > 10 µM

compound: C[N+]1(C)[C@@H]2C[C@@H](OC(=O)C(O)(c3cccs3)c3cccs3)C[C@H]1[C@@H]1O[C@@H]12 [TIOTROPIUM BROMIDE]
measured.target: Muscarinic acetylcholine receptor M5 (Homo sapiens); note: assay procedure not described here
reported.measurement: 0.0015 µM

compound: Cc1ccc(-c2ncc(Cl)cc2-c2ccc(S(C)(=O)=O)cc2)cn1
measured.target: Muscarinic acetylcholine receptor M5 (Homo sapiens); note: assay procedure not described here
reported.measurement: > 10 µM

compound: N=C(N)NC(=O)c1nc(Cl)c(N)nc1N [AMILORIDE]
measured.target: Muscarinic acetylcholine receptor M5 (Homo sapiens); note: assay procedure not described here
reported.measurement: > 10 µM

compound: NCC1(CC(=O)O)CCCCC1
measured.target: Muscarinic acetylcholine receptor M5 (Homo sapiens); note: assay procedure not described here
reported.measurement: > 10 µM

compound: CCOC(=O)[C@H](CCc1ccccc1)N[C@@H](C)C(=O)N1Cc2ccccc2C[C@H]1C(=O)O
measured.target: Muscarinic acetylcholine receptor M5 (Homo sapiens); note: assay procedure not described here
reported.measurement: > 10 µM

compound: Cc1ccc(O)c([C@H](CCN(C(C)C)C(C)C)c2ccccc2)c1
measured.target: Muscarinic acetylcholine receptor M5 (Homo sapiens); note: assay procedure not described here
reported.measurement: 0.0065 µM

compound: CN1C2CCCC1CC(NC(=O)c1nn(C)c3ccccc13)C2 (stereo not drawn)
measured.target: Muscarinic acetylcholine receptor M5 (Homo sapiens); note: assay procedure not described here
reported.measurement: > 10 µM
